experiment: Pharmacokinetic study after intravenous administration; assay type: in vivo, SD rats; conditions: female, Sprague-Dawley (SD), rat, plasma, iv, 10 mg/kg; rats, i.v., 10 mg MTX-equivalent/kg; read-out: MRT(0-t)
Parameter Measured: MRT last

Problem: Please look up its MRT last: CN(Cc1cnc2nc(N)nc(N)c2n1)c1ccc(C(=O)N[C@@H](CCC(=O)O)C(=O)O)cc1 [free MTX, Methotrexate]
Result: 6.27 h

====

experiment: Pharmacokinetic study after intravenous administration; assay type: in vivo, SD rats; conditions: female, Sprague-Dawley (SD), rat, plasma, iv; after 4 h, rats, i.v., 10 mg/kg; read-out: plasma MTX concentration
Parameter Measured: concentration at 4 h
Don't forget the unit after the value.

Problem: Consider the compound CN(Cc1cnc2nc(N)nc(N)c2n1)c1ccc(C(=O)N[C@@H](CCC(=O)O)C(=O)O)cc1 [free MTX, Methotrexate] and give its measured concentration at 4 h.
Result: 4590 ng/mL
